Hi there, I'd appreciate the recorded pIC50 for every entry that follows.
# experimentalSystem: Human PDE4B1 (Homo sapiens (Human), UniProt Q07343, S133E/S654A/S659A/S661A)
# Sequence (Q07343 122-736 S133E/S654A/S659A/S661A): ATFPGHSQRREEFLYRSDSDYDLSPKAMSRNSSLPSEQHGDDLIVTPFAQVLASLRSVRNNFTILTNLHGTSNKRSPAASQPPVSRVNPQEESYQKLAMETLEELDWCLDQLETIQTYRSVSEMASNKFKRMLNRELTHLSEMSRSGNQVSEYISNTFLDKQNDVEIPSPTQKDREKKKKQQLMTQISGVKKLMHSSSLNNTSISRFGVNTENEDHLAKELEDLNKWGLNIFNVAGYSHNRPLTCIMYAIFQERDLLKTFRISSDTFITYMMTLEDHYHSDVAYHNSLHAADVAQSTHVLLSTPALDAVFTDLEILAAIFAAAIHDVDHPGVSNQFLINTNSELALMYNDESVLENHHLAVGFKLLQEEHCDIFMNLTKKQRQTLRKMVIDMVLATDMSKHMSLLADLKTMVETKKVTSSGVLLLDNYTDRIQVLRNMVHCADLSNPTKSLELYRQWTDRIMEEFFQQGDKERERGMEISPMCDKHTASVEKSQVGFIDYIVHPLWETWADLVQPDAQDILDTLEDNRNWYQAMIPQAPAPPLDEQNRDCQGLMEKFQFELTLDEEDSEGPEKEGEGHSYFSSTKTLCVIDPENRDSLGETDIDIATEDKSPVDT
# testDescription: PDE4B1 Scintillation Proximity Assay (SPA), inhibition of enzyme activity
# Format: biochemical
# studyConditions: Table 9, geometric mean of 2-9 determinations unless otherwise indicated, read-out: Human PDE4B FL
Give bare numbers, as −log10 of the molar value.

Quick one: pIC50 for N#Cc1ccc(-c2c3n(c4cccnc24)CCN(C2CC2)C3=O)c(F)c1 [Example 22] ? 7.95

State recorded pIC50 for all listed compounds.
1. O=C1c2c(-c3ccc(Cl)cc3)c3ncccc3n2CCN1c1ncccn1 [Example 1]
2. O=C1c2c(-c3cncnc3)c3ncccc3n2CCN1C1CC1 [Example 55]

1: 7.79; 2: 6.95
